FYI, the data here is from paper doi:10.1101/2022.08.09.503277v2.

- study_target: ECD-AT1G56145 (IGP1) (Arabidopsis thaliana)
- protocol_notes: isothermal titration calorimetry
- measurement_parameters: 20 mM sodium citrate pH 5.0, 150 mM NaCl, 25 °C; single site, N fixed to 1
value_kind: pKd
Scale for pKd: -log10 of concentration given in mol/L; no unit attached.

molecule | pKd
OC[C@H]1O[C@@H](O[C@H]2[C@H](O)[C@@H](O)[C@H](O[C@H]3[C@H](O)[C@@H](O)C(O)O[C@@H]3CO)O[C@@H]2CO)[C@H](O)[C@@H](O)[C@@H]1O (some centres unmarked) | 5.92

What the record says about OC[C@H]1O[C@@H](O[C@H]2[C@H](O)[C@@H](O)[C@H](O[C@H]3[C@H](O)[C@@H](O)[C@H](O[C@H]4[C@H](O)[C@@H](O)[C@H](O[C@H]5[C@H](O)[C@@H](O)C(O)O[C@@H]5CO)O[C@@H]4CO)O[C@@H]3CO)O[C@@H]2CO)[C@H](O)[C@@H](O)[C@@H]1O (some centres unmarked) : pKd is 5.85
